Entry source: patent US20240301409A1

tested on: Rag1-40 target sequence in the 3′ UTR of firefly luciferase, COS-1 cells; test: Analysis of off-target effects (pOff-Target dual luciferase reporter in COS-1 cells); details: lysed 48 hours after transfection, luciferase activity
Oligonucleotides are written 5' to 3', each unit as a sugar letter and its base; * is a phosphorothioate linkage, no mark a phosphodiester; rarer units and linkages stand in square brackets, end groups in braces. Plain capitals give the bases only. m = 2'-O-methyl; r = 2'-OH (RNA); f = 2'-fluoro
experimental.endpoint: off-target effect compared to unmodified Rag1-40, in words

Rag1-40-27: saRNA duplex: sense fCfCAACUCAUUCUCCAAG*U*C (SEQ ID NO 16); antisense fUmAfCfUfUmGmGmAmGmAmAfUmGmAmGfUfUmGmGfCmA (SEQ ID NO 8) (sense fCfCrArArCrUrCrArUrUrCrUrCrCrArArG*rU*rC)	completely inhibited
Rag1-40-1: saRNA duplex: sense mCmCAACUCAUUCUCCAAGmUmC (SEQ ID NO 5); antisense fUAfCfUfUGGAGAAfUGAGfUfUGGfCA (SEQ ID NO 6) (sense CCAACUCAUUCUCCAAGUC; antisense UACUUGGAGAAUGAGUUGGCA; 2'-OMe and 2'-F modifications; modified_base (1)..(19) (1,2,18,19)=2′-O-methyl(2′-OMe); modified_base (1)..(20) (1,3,4,5,12,16,17,20)=2′-fluoro)	completely inhibited
Rag1-40-3: saRNA duplex: sense mCmCAACUCAUUCUCCAAGmUmC (SEQ ID NO 5); antisense fUmAfCfUfUmGmGmAmGmAmAfUmGmAmGfUfUmGmGfCmA (SEQ ID NO 8) (sense mCmCrArArCrUrCrArUrUrCrUrCrCrArArGmUmC)	completely inhibited
